biological target: TRF1TRFH (Homo sapiens, UniProt P54274); construct: encoding residues 47–268, UniProt identifier P54274-1; His6-MBP (TEV-cleavable) (N, cleaved yes); made in house; host or cells: E. coli BL21-CodonPlus(DE3)-RIL; assay: LO-NMR CPMG assay (relaxation-edited), singletons; type: binding; settings: average peak intensity reduction on addition of TRF1TRFH; 250 µM ligand, 20 µM protein; single experiment
Sequence (P54274 47-268): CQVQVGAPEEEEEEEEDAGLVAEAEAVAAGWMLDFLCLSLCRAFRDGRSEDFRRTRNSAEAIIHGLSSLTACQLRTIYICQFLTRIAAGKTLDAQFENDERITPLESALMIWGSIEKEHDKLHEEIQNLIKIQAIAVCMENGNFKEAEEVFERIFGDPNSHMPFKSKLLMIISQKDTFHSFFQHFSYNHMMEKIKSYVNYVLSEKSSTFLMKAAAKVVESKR
Recorded endpoint: CPMG reduction (%)

Sample records with CPMG reduction:
CCOc1ccc(S(=O)(=O)O)c2ccccc12
96
c1ccc(-c2noc(C3CCC3)n2)nc1
22

1 = Nc1nc2cc3c(cc2s1)OCO3
2 = CCOc1ccc(S(N)(=O)=O)c2ccccc12 [Compound 33, 4-ethoxynaphthalene-1-sulfonamide]
Ask: // pick min by CPMG reduction: 1 , 2 // caller expects the label of the chosen entry
Result: 1
(1: 28%, 2: 79%)

###

experiment: Fragment solubility assay (quantitative 1H NMR); assay type: physicochemical; conditions: NMR buffer, overnight incubation, 1H NMR quantified against 1 mM caffeine standard
Recorded endpoint: Kin. Sol. (µM)

Sample records with Kin. Sol.:
Cc1cccc(COc2ccc(S(=O)(=O)[O-])c3ccccc23)c1.[Na+]
460
CCCOc1cccc(COc2ccc(S(=O)(=O)[O-])c3ccccc23)c1.[Na+]
590
CCOc1ccc(S(=O)(=O)O)c2ccccc12
810
O=S(=O)(O)c1ccc(OCc2ccccc2)c2ccccc12
850

P = CCOc1ccc(C(=O)O)c2ccccc12
Q = O=S(=O)([O-])c1ccc(OCc2cccc(Br)c2)c2ccccc12.[Na+]
R = O=S(=O)([O-])c1ccc(OCc2cccc(Cl)c2)c2ccccc12.[Na+]
S = CCOc1ccc(S(N)(=O)=O)c2ccccc12 [Compound 33, 4-ethoxynaphthalene-1-sulfonamide]
Ask: Output the entries ranked by Kin. Sol. from maximum down to minimum. Labels, requested order.
Result: P, R, Q, S

###

molecular target: TRF1TRFH (Homo sapiens); construct: encoding residues 47–268, UniProt identifier P54274-1; His6-MBP (TEV-cleavable) (N, cleaved yes); made in house; host or cells: E. coli BL21-CodonPlus(DE3)-RIL; experiment: Crystal soaking of TRF1TRFH crystals; details: soaking into TRF1TRFH crystals; Supplementary Table 1
Recorded endpoint: Crystal structure

COc1ccc2sc(N)nc2c1
Yes
COc1ccc2sc(C)nc2c1
Yes
Nc1nc2cc3c(cc2s1)OCO3
No
COc1cc2nc(N)sc2cc1OC
No
